Form: system (Glutamate receptor ionotropic AMPA (Homo sapiens, UniProt P42261+P42262+P42263+P48058)), quantity (Ki), values below.
Provide only the numeric value, understood in µM.

Here's what some known entries look like.
>>> observed("O=C(NCc1ccn(-c2cc3nc(O)c(O)nc3cc2[N+](=O)[O-])c1)Nc1ccncc1")
0.11
>>> observed("O=C(O)Cn1c(=O)c(=O)[nH]c2cc(C(F)(F)F)c(-n3ccc(CNC(=O)c4ccccc4)c3)cc21")
0.078
>>> observed("O=C(O)Cn1c(=O)c(=O)[nH]c2cc([N+](=O)[O-])c(-n3cccc3)cc21")
0.07
>>> observed("O=c1[nH]c2cc(-n3ccnc3)c([N+](=O)[O-])cc2[nH]c1=O [YM-90K]")
0.135
>>> observed("O=C(O)Cn1c(=O)c(=O)[nH]c2cc([N+](=O)[O-])c(-n3ccc(CNC(=O)NCCc4ccncc4)c3)cc21")
0.095

# ---- query molecule ----
The reported Glutamate receptor ionotropic AMPA (Homo sapiens, UniProt P42261+P42262+P42263+P48058) Ki of `O=C(O)Cn1c(=O)c(=O)[nH]c2cc(C(F)(F)F)c(-n3ccc(CNC(=O)Cc4ccccc4)c3)cc21` is 0.14
